- Tested target: RAC-alpha serine/threonine-protein kinase (Homo sapiens)
- Sequence (P31749 whole entry): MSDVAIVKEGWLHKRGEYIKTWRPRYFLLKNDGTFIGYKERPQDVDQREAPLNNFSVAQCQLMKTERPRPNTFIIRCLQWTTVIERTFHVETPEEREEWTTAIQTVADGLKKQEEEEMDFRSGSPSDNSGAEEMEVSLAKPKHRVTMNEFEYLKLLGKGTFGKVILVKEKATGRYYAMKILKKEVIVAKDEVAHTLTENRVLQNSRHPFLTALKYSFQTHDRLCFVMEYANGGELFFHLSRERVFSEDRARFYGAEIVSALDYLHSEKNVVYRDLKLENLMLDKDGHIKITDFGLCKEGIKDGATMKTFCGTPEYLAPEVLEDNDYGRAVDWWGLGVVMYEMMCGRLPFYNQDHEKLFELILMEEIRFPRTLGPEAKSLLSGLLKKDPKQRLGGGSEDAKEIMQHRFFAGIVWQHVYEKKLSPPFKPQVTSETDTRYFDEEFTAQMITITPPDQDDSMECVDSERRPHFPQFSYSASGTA
pKd: −log10 of the molar value.
A collection of compounds and their measured pKd

Compound: CC(C)CCCC1(C)CCc2c(O)cccc2O1 (stereo unspecified)
pKd: 6.47
--
Compound: CC(C)CCCC1(C)CC(=O)c2cc(O)ccc2O1 (stereo unspecified)
pKd: 6.55
--
Compound: CC(C)CCCC1(C)CCc2cc(O)cc(O)c2O1 (stereo unspecified)
pKd: 5.93
--
Compound: Cc1cc(O)cc2c1OC(C)(CCCC(C)C)CC2=O (stereo unspecified)
pKd: 6.49
--
Compound: CC(C)CCCC1(C)CCc2cc(O)cc(F)c2O1 (stereo unspecified)
pKd: 6.47
--
Compound: COc1cc(O)cc2c1OC(C)(CCCC(C)C)CC2 (stereo unspecified)
pKd: 5.73

Cited source for all entries: ChEMBL document CHEMBL3414473
